system: SK-ES-1; experiment: relative viability vs DMSO control (72 h) (fraction); higher = more viable cells; settings: 3.333 µM
Entries and their measured relative viability follow.

Compound | relative viability
N#CC1(c2ccc(NC(=O)c3cccnc3NCc3ccncc3)cc2)CCCC1 [Apatinib] | 0.936
CCN(CC)CCNC(=O)c1c(C)[nH]c(/C=C2\C(=O)Nc3ccc(F)cc32)c1C [Sunitinib] | 0.018
CC[C@@H]1CN(C(=O)NCC(F)(F)F)C[C@@H]1c1cnc2cnc3[nH]ccc3n12 [Upadacitinib] | 0.986
O=S(=O)(c1cccc2cnccc12)N1CCCNCC1 [Fasudil] | 1.06

---

Entries and their measured relative viability follow.
tested on: A204; test: relative viability vs DMSO control (72 h) (fraction); higher = more viable cells; conditions: 1.111 µM

Compound | Assayed Target | relative viability
COc1cc(Nc2ncc(F)c(Nc3ccc4c(n3)N(COP(=O)(O)O)C(=O)C(C)(C)O4)n2)cc(OC)c1OC | A204 | 0.494
O=C(Nc1ccc(OC(F)(F)Cl)cc1)c1cnc(N2CC[C@@H](O)C2)c(-c2cc[nH]n2)c1 | A204 | 1.04
COc1cc(CCc2cc(NC(=O)c3ccc(N4CC(C)NC(C)C4)cc3)n[nH]2)cc(OC)c1 (centres undefined) | A204 | 0.556
COC(=O)N[C@@H](C)CNc1nccc(-c2cn(C(C)C)nc2-c2cc(Cl)cc(NS(C)(=O)=O)c2F)n1 | A204 | 0.838
